Ref: ChEMBL document CHEMBL5506043

Molecular target: Protein-arginine deiminase type-2 (Homo sapiens, UniProt Q9Y2J8)
Sequence (Q9Y2J8 whole entry): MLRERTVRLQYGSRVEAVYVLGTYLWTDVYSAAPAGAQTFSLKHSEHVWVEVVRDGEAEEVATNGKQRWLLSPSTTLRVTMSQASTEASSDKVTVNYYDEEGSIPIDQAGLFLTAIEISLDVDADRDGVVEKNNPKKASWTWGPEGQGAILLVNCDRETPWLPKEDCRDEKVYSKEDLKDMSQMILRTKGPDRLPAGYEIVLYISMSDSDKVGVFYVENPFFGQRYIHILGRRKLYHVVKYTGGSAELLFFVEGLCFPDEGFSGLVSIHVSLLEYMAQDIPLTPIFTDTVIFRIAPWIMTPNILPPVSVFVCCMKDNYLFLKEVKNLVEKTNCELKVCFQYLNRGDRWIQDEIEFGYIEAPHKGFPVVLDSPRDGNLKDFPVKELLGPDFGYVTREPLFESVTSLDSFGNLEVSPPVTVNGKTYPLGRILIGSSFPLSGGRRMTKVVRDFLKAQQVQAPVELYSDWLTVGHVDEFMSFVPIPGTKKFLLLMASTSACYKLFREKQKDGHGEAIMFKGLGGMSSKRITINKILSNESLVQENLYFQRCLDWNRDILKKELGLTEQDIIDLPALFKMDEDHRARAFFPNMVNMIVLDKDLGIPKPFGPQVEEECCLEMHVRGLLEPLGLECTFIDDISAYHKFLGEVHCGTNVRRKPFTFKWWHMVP
Attribute: IC50

- smiles: "N=C(CCl)NCCC[C@H](NC(=O)c1ccc2[nH]ccc2c1)C(=O)NCc1ccccc1"
  IC50: "1.43 µM"
- smiles: "Cn1c(-c2nc(C(=O)N[C@@H](CCCNC(=N)CCl)C(=O)NCc3ccccc3)cc3c2[nH]c2ccccc23)nc2ccccc21"
  IC50: "> 10 µM"
- smiles: "N=C(CCl)NCCC[C@H](NC(=O)c1cc2c(cn1)[nH]c1ccccc12)C(=O)NCc1ccccc1"
  IC50: "2.73 µM"
- smiles: "CC(C)c1nc(C(=O)N[C@@H](CCCNC(=N)CCl)C(=O)NCc2ccccc2)cc2c1[nH]c1ccccc12"
  IC50: "1.14 µM"
- smiles: "N=C(CCl)NCCC[C@H](NC(=O)c1cc2c([nH]c3ccccc32)c(-c2nc3ccccc3[nH]2)n1)C(=O)NCc1ccccc1"
  IC50: "> 10 µM"
- smiles: "N=C(CCl)NCCC[C@H](NC(=O)c1cc2c([nH]c3ccccc32)c(-c2ccc3ccccc3c2)n1)C(=O)NCc1ccccc1"
  IC50: "> 10 µM"
- smiles: "CCCCCc1nc(C(=O)N[C@@H](CCCNC(=N)CCl)C(=O)NCc2ccccc2)cc2c1[nH]c1ccccc12"
  IC50: "3.64 µM"

###

Tested on: 4T1
Test: Antiproliferative activity against mouse 4T1 cells assessed as inhibition of cell growth incubated for 48 hrs by MTT assay
Assay type: functional, cell-based
Settings: 4T1, 48 h
pIC50: −log10 of the molar value.
Attribute: pIC50

- smiles: "CCCCCCCCCc1nc(C(=O)N[C@@H](CCCNC(=N)CCl)C(=O)NCc2ccccc2)cc2c1[nH]c1ccccc12"
  pIC50: 4.91
- smiles: "N=C(CCl)NCCC[C@H](NC(=O)c1cc2c([nH]c3ccccc32)c(-c2ccc(O)cc2)n1)C(=O)NCc1ccccc1"
  pIC50: 4.64
- smiles: "N=C(CCl)NCCC[C@H](NC(=O)c1cc2c([nH]c3ccccc32)c(-c2ccc3ccccc3c2)n1)C(=O)NCc1ccccc1"
  pIC50: 5.24
- smiles: "COc1cc(OC)c(-c2nc(C(=O)N[C@@H](CCCNC(=N)CCl)C(=O)NCc3ccccc3)cc3c2[nH]c2ccccc23)c(OC)c1"
  pIC50: 4.80

###

Test: Cytotoxicity against human MCF-10A cells assessed as inhibition of cell growth incubated for 48 hrs by MTT assay
Format: toxicity, cell-based

- smiles: "N=C(CCl)NCCC[C@H](NC(=O)c1cc2c([nH]c3ccccc32)c(-c2cc3ccccc3cn2)n1)C(=O)NCc1ccccc1"
  limit operator: "="
  IC50 at 48 h, µM: 4.02
- smiles: "N=C(CCl)NCCC[C@H](NC(=O)c1c[nH]c2ccc(F)cc12)C(=O)NCc1ccccc1"
  limit operator: "="
  IC50 at 48 h, µM: 72.7
- smiles: "N=C(CCl)NCCC[C@H](NC(=O)c1cc2c([nH]c3ccccc32)c(-c2ccc(F)cc2)n1)C(=O)NCc1ccccc1"
  limit operator: "="
  IC50 at 48 h, µM: 7.07
- smiles: "N=C(CCl)NCCC[C@H](NC(=O)c1ccc2nc[nH]c2c1)C(=O)NCc1ccccc1"
  limit operator: ">"
  IC50 at 48 h, µM: 100
